This collection of values is drawn from PubChem BioAssay (NCI).

- System: NCI-H460 lung
- PROCEDURE_TEXT: NCI tumour cell line growth inhibition, 48 h; in the data active means GI50 below about 0.43 µM; inactive means the rest
Outcome (select one): active, inactive

Check out these entries, answers already filled in.
>  <MOLECULE>
COc1ccc2c(c1)/C(=C/c1c(C)nc3sc(C)nn13)C(=O)N2

>  <ASSAYED_TARGET>
NCI-H460 lung

>  <LABEL_VALUE>
inactive

$$$$
>  <MOLECULE>
Cn1cc(C2=C(c3cn(C)c4ncccc34)C(=O)NC2=O)c2ccccc21

>  <ASSAYED_TARGET>
NCI-H460 lung

>  <LABEL_VALUE>
inactive

$$$$
>  <MOLECULE>
COC1=CC(c2ccc[nH]2)=N/C1=C\c1[nH]c(C)c(C(=O)OC(C)C)c1C

>  <ASSAYED_TARGET>
NCI-H460 lung

>  <LABEL_VALUE>
active

$$$$

Record request — test call for COc1ccc(C(=O)Cn2c(C(=O)c3ccccc3)nc(-c3ccc(OC)cc3)c2-c2ccc(OC)cc2)cc1
inactive

Record request — test call for NC(Cc1c[nH]c2c(O)cccc12)C(=O)O (stereo not given)
inactive

Record request — test call for O=C(Nc1ccccc1OC(F)(F)F)Nc1n[nH]c2ccccc12
inactive

Record request — test call for Clc1ccc2c(NCCCCNc3nc(N4CCCCC4)nc4ccccc34)ccnc2c1
inactive

Record request — test call for COc1cc(/C=N/NC(=O)c2ccc(C(F)(F)F)nc2Nc2ccc(Cl)cc2C)ccc1O
inactive

Record request — test call for COc1ccc(-c2nc3sccn3c2/C(N)=N/C(=N)N)cc1OC
inactive

Record request — test call for Cc1cc(I)cc(CN(C)CCCCN2CCCCC2)c1O
inactive

---

- System: LXFL 529 NSCLC
- PROCEDURE_TEXT: NCI tumour cell line growth inhibition, 48 h
RECORDED_METRIC: TGI

>  <COMPOUND>
CN(C)CC[N+]1=Nc2cccc3cccc(c23)N1

>  <ASSAYED_TARGET>
LXFL 529 NSCLC

>  <TGI>
> 100 µM

$$$$
>  <COMPOUND>
O=C1/C(=C/c2ccccc2)CN(C(=O)C(Cl)(Cl)Cl)C/C1=C\c1ccccc1

>  <ASSAYED_TARGET>
LXFL 529 NSCLC

>  <TGI>
3.38 µM

$$$$
>  <COMPOUND>
O=C([O-])CC(=O)[O-].O=C([O-])CC(=O)[O-].[K+].[Pd+2]

>  <ASSAYED_TARGET>
LXFL 529 NSCLC

>  <TGI>
> 100 µM

$$$$

Moving on to another compound below.
# input compound: COc1ccc2c3c1C(=O)CCCC3CO2 (centres undefined) ; wanted: its TGI
> 100 µM

---

- Test system: OVCAR-4 ovarian
- PROCEDURE_TEXT: NCI tumour cell line growth inhibition, 48 h
RECORDED_METRIC: TGI (µM)
Numbers only, in µM.

Known results for compounds:
>  <COMPOUND>
CCCCCN(CCCCC)CCCNc1c2c(nc3ccc(Cl)cc13)CCCC2

>  <ASSAYED_TARGET>
OVCAR-4 ovarian

>  <TGI, µM>
12

$$$$
>  <COMPOUND>
CC1=CC2C(O1)C1C(=O)C=CC(=O)C1=CC2[N+](=O)[O-] (stereo not given)

>  <ASSAYED_TARGET>
OVCAR-4 ovarian

>  <TGI, µM>
31.6

$$$$
>  <COMPOUND>
O=C1/C(=C/c2cccc([N+](=O)[O-])c2)COc2ccc(O)cc21

>  <ASSAYED_TARGET>
OVCAR-4 ovarian

>  <TGI, µM>
11.1

$$$$

# input compound: Clc1cc(OC2C3CC4CC(C3)CC2C4)nc(Cl)n1 (stereo not given) ; wanted: its TGI
34.3

---

Please provide measured TGI for the entries that follow.
- Test system: T-47D breast
- PROCEDURE_TEXT: NCI tumour cell line growth inhibition, 48 h

Known results for compounds:
>  <COMPOUND>
CC1(C)N=C(/C(Cl)=[N+](/[O-])C(=O)c2ccc(F)cc2)C(C)(C)N1O

>  <TGI>
58.5 µM

$$$$
>  <COMPOUND>
CC[C@@]1(O)C(=O)OCc2c1cc1n(c2=O)Cc2c-1nc1ccccc1c2/C=N\NC(=O)CN

>  <TGI>
> 20.3 µM

$$$$
>  <COMPOUND>
O=C1CCC(=O)N1n1c(Cc2ccccc2)n[nH]c1=O

>  <TGI>
> 100 µM

$$$$
>  <COMPOUND>
C=C(CN1CCN(c2ccc(Cl)cc2F)CC1)c1ccc(C(=O)Nc2ccccc2N)cc1

>  <TGI>
> 100 µM

$$$$
>  <COMPOUND>
COc1cc2c(cc1OC)C(c1ccccc1CCCCl)=NCC2

>  <TGI>
> 100 µM

$$$$

For each listed entry, give its TGI.
1. CC1(C)CCc2c(c3c(c4c(=O)c(O)c(-c5ccc(O)cc5)oc24)OC(C)(C)CC3)O1
2. CSc1nc2c(c(=O)[nH]1)N=C1c3ccccc3C(=O)C1C(c1ccccc1)N2 (centres undefined)
3. COc1ccc(C(OCC2OC(n3cc(C)c(=O)[nH]c3=O)CC2n2cc(Cn3cc(I)c(=O)[nH]c3=O)nn2)(c2ccccc2)c2ccccc2)cc1 (centres undefined)
4. O=C(O)CN(CC(=O)O)C1CCCCC1N(CC(=O)O)CC(=O)NCCN=C=S (centres undefined)

["> 100 µM", "> 100 µM", "> 100 µM", "> 100 µM"]

---

- Tested on: UO-31 renal
- PROCEDURE_TEXT: NCI tumour cell line growth inhibition, 48 h
Where a SMILES comes first, the peptide text is derived from it. [ ]: non-standard residue; d: D form. The star is where a group is joined. ξ: configuration not given here. X6 = FC(F)(F)c1cc(NC(=S)*)cc(C(F)(F)F)c1; ξF = NC(Cc1ccccc1)C(=O)O
RECORDED_METRIC: TGI

>  <MOLECULE>
O=C([O-])CC(=O)[O-].O=C([O-])CC(=O)[O-].[K+].[Pd+2]

>  <VALUE>
> 100 µM

$$$$
>  <MOLECULE>
NC(Cc1c[nH]c2c(O)cccc12)C(=O)O (centres undefined)

>  <VALUE>
> 100 µM

$$$$
>  <MOLECULE>
Cc1ccsc1/C=N/Nc1ncccn1

>  <VALUE>
> 100 µM

$$$$
>  <MOLECULE>
CC1=C(C)[C@@]2(C)O[C@@]2(C)O[C@@]2(C)O[C@@]12C

>  <VALUE>
> 100 µM

$$$$
>  <MOLECULE>
O=C1/C(=C/c2ccc(O)cc2)CC/C1=C\c1ccc(O)cc1

>  <VALUE>
> 100 µM

$$$$

For each listed entry, give its TGI.
1. COC(=O)[C@@H](NC(=O)CNC(=O)[C@H]1CCCN1C(=O)C(Cc1ccccc1)NC(=S)Nc1cc(C(F)(F)F)cc(C(F)(F)F)c1)C(C)C (some centres undefined) (X6-[ξF][dP]GV-OMe)
2. CCCCCCCCCCCOc1ccc(C(=O)C(=O)c2ccc(OCCCCCCCCCCC)c(OCCCCCCCCCCC)c2)cc1OCCCCCCCCCCC

["13.9 µM", "> 100 µM"]

For each listed entry, give its TGI.
1. Cc1nc2ccccc2c(=O)n1-c1ccccc1I
2. COc1cc(Cc2cnc(/N=C3\C(=O)N(CN4CCN(c5c(F)cc6c(=O)c(C(=O)O)cn(C7CC7)c6c5OC)CC4C)c4ccc(F)cc43)nc2N)cc(OC)c1OC (centres undefined)
3. CCOc1cc2c(cc1O)/C(=N\OC)C[C@@H]1[C@@H]2CC[C@]2(C)[C@@H](O)CC[C@@H]12
4. C[n+]1c2ccccc2c(/C=N\NS(=O)(=O)c2ccc(O)c(C(=O)O)c2)c2ccccc21
5. NC(=O)C(c1ccccc1)N1OC2C(=O)N(c3ccccc3)C(=O)C2C1c1c2ccccc2c(Cl)c2ccccc12 (centres undefined)
6. CC(C)CCC[C@@H](C)[C@H]1CC[C@H]2[C@@H]3CC=C4C[C@@H](C(C(=O)O)C(=O)O)CC[C@]4(C)[C@H]3CC[C@]12C

["> 100 µM", "> 100 µM", "> 58.5 µM", "> 100 µM", "> 100 µM", "0.467 µM"]

# query: TGI | item O=C(O)c1ccccc1[Se][Se]c1ccccc1C(=O)O | system: UO-31 renal
28.3 µM

---

- Tested on: XF 498 CNS
- PROCEDURE_TEXT: NCI tumour cell line growth inhibition, 48 h
RECORDED_METRIC: TGI

>  <MOLECULE>
Cc1ccc(N=Nc2ccc(N(CCC#N)CCC#N)cc2C)c(Br)c1

>  <TGI>
40.6 µM

$$$$
>  <MOLECULE>
CCC12C=CCN3CCC4(C(=C(C(=O)OC)[C@@H]1O)Nc1ccccc14)C32 (stereo partly drawn)

>  <TGI>
3.05 µM

$$$$
>  <MOLECULE>
O=C1C2C(C(=O)N1OS(=O)(=O)c1ccccc1)N(Cc1ccccc1)C(=O)N2Cc1ccccc1 (stereo not drawn)

>  <TGI>
> 100 µM

$$$$
>  <MOLECULE>
COc1ccccc1C12OC(=O)C1(C)Oc1ccccc1C2=O (stereo not drawn)

>  <TGI>
> 100 µM

$$$$
>  <MOLECULE>
COC1(OC)CCC2C1C1CCC(OC)(OC)C21 (stereo not drawn)

>  <TGI>
> 50 µM

$$$$
>  <MOLECULE>
CCOC(=O)CN1C(=O)c2cccc3cc([N+](=O)[O-])cc(c23)C1=O

>  <TGI>
4.49 µM

$$$$

For each listed entry, give its TGI.
1. COc1nc(N)c(C(=O)CCl)c(=O)n1C
2. Cc1cccc2c(=O)cc(-c3ccccc3)[nH]c12
3. CCOC(=O)C1=C(C)NC(=S)NC1c1ccccc1 (stereo not drawn)
4. COc1cc2c(cc1OC)-c1c3cc(O)ccc3nn[n+]1CC2
5. COC(CN1C(=O)c2cccc3cccc(c23)C1=O)OC
6. CC(C)CCCCCCCCCCCCC(=O)NCC(=O)NC1C(C)OC(Nc2ncnc3c2ncn3C)C(O)C1O (stereo not drawn)
7. O=C1c2ccccc2C2C1N2C(=O)C(F)(F)F (stereo not drawn)
8. O=C1CCC23CC(C=CC=C12)n1c(=O)n(-c2ccccc2)c(=O)n13 (stereo not drawn)

1: 32.6 µM; 2: > 100 µM; 3: 99.7 µM; 4: > 100 µM; 5: > 100 µM; 6: > 62 µM; 7: > 100 µM; 8: > 100 µM

For each listed entry, give its TGI.
1. CC(N)Cc1ccc(C(=O)Cl)cc1 (stereo not drawn)
2. COc1ccc2c3c1C(=O)CCCC3CO2 (stereo not drawn)
3. CC1(c2ccc(F)cc2)C(C#N)C(=O)NC(=O)C1C#N (stereo not drawn)
4. C=C1C(=O)C23CC1CCC2C12CO[C@@H]4OCC(C)(CC[C@@H]1OC3=O)C42 (stereo partly drawn)

1. > 100 µM
2. > 100 µM
3. > 100 µM
4. 3.41 µM
